Test system: CMV Davis strain
Experiment: Activity against HCMV: virus-induced cytopathicity in HEL cells
Format: cell-based, human cytomegalovirus (HCMV)
Conditions: Human betaherpesvirus 5, 168 h; CMV-infected HEL cells, virus-induced cytopathicity after seven days; read-out: Antiviral IC50 (μg/ml) Davis strain
Procedure: Confluent HEL cells grown in […] microtiter plates were inoculated with CMV at an input of 100 PFU (plaque forming units) per well. After a one to two hour incubation period, residual virus was removed and the infected cells were further incubated with MEM (Minimal Essential Medium) (supplemented with 2% inactivated Fetal Calf Serum (FCS), […], and 0.3% sodium bicarbonate) containing varying concentrations of the test compounds. […]
assayEndpoint: IC50

// solved cases for IC50 follow
In [3]: df
Out[3]:
                                   molecule  valueobserved
0  Cc1ccc(N)cc1C(C)S(=O)(=O)c1cccc[n+]1[O-] (stereo not drawn) [Compound 1]     > 50 µg/mL
1  O=[N+]([O-])c1ccc(CS(=O)(=O)c2cccc[n+]2[O-])c(Cl)c1 [Compound 69]      > 5 µg/mL
2  Cc1ccc(C)c(CS(=O)(=O)c2ccccn2)c1 [Compound 150, 2-(2,5-dimethylbenzylsulfonyl)pyridine]     > 50 µg/mL
3  COCC(c1cc(C)ccc1C)S(=O)(=O)c1ccccn1 (stereo not drawn) [Compound 123]     > 50 µg/mL
4  O=[N+]([O-])c1cc(CS(=O)(=O)c2cccc[n+]2[O-])ccc1Cl [Compound 64]      > 5 µg/mL

Determine from records and report IC50 for Cc1ccc(CS(=O)(=O)c2cccc[n+]2[O-])cc1[N+](=O)[O-] [Compound 67] > 50 µg/mL
